Data export: Ki values recorded with Replicase polyprotein 1ab (Severe acute respiratory syndrome coronavirus).
MEASURE: Ki

[
  {
    "QUERY SMILES": "CCOC(=O)/C=C/[C@H](C[C@@H]1CCNC1=O)NC(=O)[C@H](Cc1ccc(F)cc1)NC(=O)[C@@H](NC(=O)c1cc(C)on1)C(C)C",
    "OBSERVED RESULT": "> 10000 nM"
  },
  {
    "QUERY SMILES": "C[C@H](OC(C)(C)C)[C@H](NC(=O)OCc1ccccc1)C(=O)N[C@@H](CC1CCCCC1)C(=O)N[C@H](C=O)C[C@@H]1CCNC1=O",
    "OBSERVED RESULT": "53 nM"
  }
]
